system: Escherichia coli; assay: Binding affinity to Escherichia coli sliding clamp assessed as association rate constant by ITC analysis
*1 amine or outer side, *2 acyl side, *3 side chain or, on linkers, in order; H or OH if unused. Where a SMILES comes first, the peptide text is derived from it. [ ]: non-standard residue; d: D form. The star is where a group is joined. Phe(3,4-Cl2) = N[C@@H](Cc1ccc(Cl)c(Cl)c1)C(=O)O; Caffeoyl = O=C(/C=C/c1ccc(O)c(O)c1)*; NH(4-MeO-phenyl) = COc1ccc(N*)cc1; Cha = N[C@@H](CC1CCCCC1)C(=O)O; NMeD = CN[C@@H](CC(=O)O)C(=O)O; CO = O=C([*:1])[*:2]
Reported Property: K

CC(C)C[C@H](NC(=O)[C@H](CC(=O)O)NC(=O)[C@H](CC1CCCCC1)NC(=O)[C@H](CCC(N)=O)NC(=O)/C=C/c1ccc(O)c(O)c1)C(=O)N[C@@H](Cc1ccccc1)C(=O)O (Caffeoyl-Q[Cha]DLF-OH)	4.6 10^4/M/s

# ---- query compound ----
Task: What value of K has been reported for the following compound? COc1ccc(NC(=O)N[C@@H](CCC(N)=O)C(=O)N[C@@H](CC2CCCCC2)C(=O)N(C)[C@@H](CC(=O)O)C(=O)N[C@@H](CC(C)C)C(=O)N[C@@H](Cc2ccc(Cl)c(Cl)c2)C(=O)O)cc1 ({NH(4-MeO-phenyl)-CO}-Q[Cha][NMeD]L[Phe(3,4-Cl2)]-OH)
Output: 4.2 10^4/M/s

###

test system: Escherichia coli; experiment: Binding affinity to Escherichia coli sliding clamp assessed as association rate constant by ITC analysis
Where a SMILES comes first, the peptide text is derived from it. [ ]: non-standard residue; d: D form. The star is where a group is joined. Acryloyl(3-(3-pyridyl),E) = O=C(/C=C/c1cccnc1)*; Phe(3,4-F2) = N[C@@H](Cc1ccc(F)c(F)c1)C(=O)O; Cha = N[C@@H](CC1CCCCC1)C(=O)O; NMeD = CN[C@@H](CC(=O)O)C(=O)O; X5 = CN(C)C(=NCC(=O)*)N(C)C
// K lookup, one value per entry

CC(=O)N[C@@H](CCC(N)=O)C(=O)N[C@@H](CC1CCCCC1)C(=O)N(C)[C@@H](CC(=O)O)C(=O)N[C@@H](CC(C)C)C(=O)N[C@@H](Cc1ccc(F)c(F)c1)C(=O)O (Ac-Q[Cha][NMeD]L[Phe(3,4-F2)]-OH)	5.6 10^4/M/s

Task: Form entry - test system: Escherichia coli; read-out: K; compound: CC(=O)N[C@@H](CCC(N)=O)C(=O)N[C@@H](CC1CCCCC1)C(=O)N[C@@H](CC(=O)O)C(=O)N[C@@H](CC(C)C)C(=O)N1CCC[C@H]1C(=O)N[C@@H](Cc1ccccc1)C(=O)O (Ac-Q[Cha]DLPF-OH)
Output: 6 10^4/M/s

Task: Form entry - test system: Escherichia coli; read-out: K; compound: CC(C)C[C@H](NC(=O)[C@H](CC(=O)O)NC(=O)[C@H](CC1CCCCC1)NC(=O)[C@H](CCC(N)=O)NC(=O)/C=C/c1cccnc1)C(=O)N[C@@H](Cc1ccccc1)C(=O)O ({Acryloyl(3-(3-pyridyl),E)}-Q[Cha]DLF-OH)
Output: 4.6 10^4/M/s

Task: Form entry - test system: Escherichia coli; read-out: K; compound: CC(C)C[C@H](NC(=O)[C@H](CC(=O)O)NC(=O)[C@H](CC1CCCCC1)NC(=O)[C@H](CCC(N)=O)NC(=O)CN=C(N(C)C)N(C)C)C(=O)N[C@@H](Cc1ccccc1)C(=O)O (X5-Q[Cha]DLF-OH)
Output: 3.4 10^4/M/s
